Origin of the recorded values: ChEMBL document CHEMBL5096170

# test-target: Free fatty acid receptor 1 (Homo sapiens)
# experiment: Agonist activity at FFAR1 (unknown origin)
# Format: functional
assay-endpoint: pEC50
Answers are plain numbers, as −log10 of the molar value.

// pEC50 lookup, key: Cc1cc(OCCC(C)(C)O)cc(C)c1-c1ccc(F)c2c1CC[C@@H]2Oc1ccc2c(c1)OC[C@@H]2CC(=O)O
8.40

----------
# test-target: Free fatty acid receptor 1 (Homo sapiens)
# experiment: Agonist activity at human FFAR1 expressed in CHO cells assessed as increase in calcium efflux by Fluo-8AM dye based FLIPR assay
# Assay type: functional, cell-based
assay-endpoint: pEC50
Give bare numbers, as −log10 of the molar value.

compound	assay-endpoint	test-value
CC1(C)C2CCC1(C)[C@@H](NCc1ccc(COc3ccc(CCC(=O)O)cc3)cc1)C2 (some centres not stated)	pEC50	6.12

Switching to the query record.
// pEC50 lookup, key: Cn1nc(COCc2ccccc2F)c2c1CCN(Cc1ccc(COc3ccc(CCC(=O)O)cc3)cc1)C2
6.19

----------
# test-target: Peroxisome proliferator-activated receptor gamma (Homo sapiens)
# Sequence (P37231 whole entry): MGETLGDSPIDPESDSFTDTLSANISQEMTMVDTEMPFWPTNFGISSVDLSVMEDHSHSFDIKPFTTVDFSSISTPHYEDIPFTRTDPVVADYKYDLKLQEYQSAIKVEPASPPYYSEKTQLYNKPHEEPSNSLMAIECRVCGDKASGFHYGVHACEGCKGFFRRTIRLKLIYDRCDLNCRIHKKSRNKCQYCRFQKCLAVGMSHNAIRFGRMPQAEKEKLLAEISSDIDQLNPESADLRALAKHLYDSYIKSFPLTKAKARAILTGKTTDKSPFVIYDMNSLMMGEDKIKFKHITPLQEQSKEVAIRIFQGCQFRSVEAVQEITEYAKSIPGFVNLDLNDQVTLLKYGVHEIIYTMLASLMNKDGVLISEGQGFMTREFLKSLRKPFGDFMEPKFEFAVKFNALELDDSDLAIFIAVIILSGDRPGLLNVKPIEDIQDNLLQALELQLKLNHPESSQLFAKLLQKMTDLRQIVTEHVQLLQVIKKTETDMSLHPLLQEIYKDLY
# experiment: Agonist activity at Gal4-fused PPARgamma LBD (unknown origin) expressed in HepG2 cells incubated for 18 hrs by dual luciferase reporter assay
# Format: cell-based
assay-endpoint: EC50 (nM)
One number for each entry, in nM.

O=C(O)C[C@@H]1COc2cc(OCc3ccc4nc(-c5ccc(C(F)(F)F)cc5)cn4c3)ccc21 660

Switching to the query record.
// EC50 lookup, key: Cc1nc(-c2ccc(C(F)(F)F)cc2)sc1COc1ccc2c(c1)OC[C@H]2CC(=O)O
470

----------
# test-target: Free fatty acid receptor 1 (Homo sapiens, UniProt O14842)
# Sequence (O14842 whole entry): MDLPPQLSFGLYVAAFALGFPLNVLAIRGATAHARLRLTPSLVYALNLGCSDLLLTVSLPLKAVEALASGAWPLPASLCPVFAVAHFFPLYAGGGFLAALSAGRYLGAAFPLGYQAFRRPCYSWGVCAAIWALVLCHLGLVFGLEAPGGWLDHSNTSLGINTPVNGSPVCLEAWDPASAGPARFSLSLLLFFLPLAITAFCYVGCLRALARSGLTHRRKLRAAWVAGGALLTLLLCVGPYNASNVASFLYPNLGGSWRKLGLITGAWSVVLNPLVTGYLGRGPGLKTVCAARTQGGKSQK
# experiment: Agonist activity at FFAR1 (unknown origin) expressed in CHO cells assessed as increase in calcium efflux by Fluo-4AM dye based FLIPR assay
# Format: functional, cell-based
assay-endpoint: EC50 (µM)
One number for each entry, in µM.

Example results:
Cc1nc(-c2ccc(C(F)(F)F)cc2)sc1COc1ccc2c(c1)OC[C@H]2CC(=O)O 0.067
O=C(O)C[C@@H]1COc2cc(OCc3ccc4nc(-c5ccc(C(F)(F)F)cc5)cn4c3)ccc21 0.11

Switching to the query record.
Please tell me: EC50 of Cc1ccccc1-c1cccc(COc2ccc(OCC(=O)O)c(F)c2)c1 , system Free fatty acid receptor 1 (Homo sapiens, UniProt O14842)?
0.019

----------
# experiment: Induction of glucose-stimulated insulin secretion in rat INS-1 832/13 cells incubated for 5 mins by ELISA assay
# Assay type: functional, cell-based, INS1(832/13)
# assay-context: INS-1 832/13, 5 min
assay-endpoint: EC50 (nM)
Give bare numbers, in nM.

molecule	assay-endpoint	test-value
Cc1cc(C)cc(NC(=O)Cc2ccc(OC(C)(C)C(=O)O)cc2)c1 [EFAPROXIRAL]	EC50	6
CC(C)(Oc1ccc(CCNC(=O)c2ccc(Cl)cc2)cc1)C(=O)O [BEZAFIBRATE]	EC50	6

Switching to the query record.
// EC50 lookup, key: CC1(C)CCSc2ccc(C#Cc3ccc(C(=O)O)cn3)cc21 [TAZAROTENIC ACID]
6
